Sourced from paper PMC5540273

# System: MARK4
# CONDITIONS: concentration: 1 μM, replicates: in singlicate; n = 1;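 also: KINOMEscan kinase panel screen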

- MOLECULE: "COc1cc2c(cc1OCCN1CCN(C)CC1)ncc1c3ccc(C#N)cc3[nH]c21"
  %Inh (%): 0
- MOLECULE: "COc1cc2ncn(-c3cc(OCc4sccc4Cl)c(C(N)=O)s3)c2cc1OC [GSK448459]"
  %Inh (%): 0
- MOLECULE: "COc1ccc(CNC(=O)NC2CCN(c3ccnc(Nc4ccc(OC)cc4)n3)C2)cc1 (stereo not drawn) [GSK1379727]"
  %Inh (%): 0
- MOLECULE: "O=C1Cc2cc(Nc3nc(NCc4cccc(S(=O)(=O)C(F)(F)F)c4)ncc3C(F)(F)F)ccc2N1"
  %Inh (%): 6
- MOLECULE: "O=c1cc(N2CCOCC2)nc2n(Cc3cccc(F)c3)ccn12 [GSK2297430]"
  %Inh (%): 10
- MOLECULE: "CCc1ccnc(/C=C/c2n[nH]c3cc(Sc4ccccc4C(=O)NC)ccc23)c1"
  %Inh (%): 21

====

# Test system: PFTAIRE2
# CONDITIONS: concentration: 1 μM, replicates: in singlicate; n = 1
Rule: %Inh under 20% gives condition not met, otherwise condition met.

- MOLECULE: "NCCNS(=O)(=O)c1ccc(-c2ccnc3[nH]ccc23)cc1"
  ANSWER_LABEL: "condition met"
- MOLECULE: "CN1c2ccc(NCc3ccc(F)cc3)cc2-c2c(cnn2C)S1(=O)=O"
  ANSWER_LABEL: "condition not met"
- MOLECULE: "NCC(NC(=O)c1cc(-c2cn[nH]c2)c(-c2ccnc3[nH]ccc23)s1)c1ccccc1.O=C(O)C(F)(F)F.O=C(O)C(F)(F)F (centres unmarked)"
  ANSWER_LABEL: "condition not met"
- MOLECULE: "CC(C)Oc1ccc2c(-c3ccnc(Nc4ccc(N5CCN(C)CC5)cc4)n3)cnn2n1"
  ANSWER_LABEL: "condition met"
- MOLECULE: "NS(=O)(=O)c1cccc(-c2ccc3ncc(N4CCOCC4)nc3c2)c1"
  ANSWER_LABEL: "condition not met"
- MOLECULE: "C[C@@H](Oc1cc(-n2cnc3ccc(NC(=O)NC(C)(C)C)cc32)sc1C(N)=O)c1ccccc1Cl"
  ANSWER_LABEL: "condition not met"
- MOLECULE: "NS(=O)(=O)c1cccc(-c2ccc3nccc(-c4cccc(S(N)(=O)=O)c4)c3c2)c1"
  ANSWER_LABEL: "condition not met"
- MOLECULE: "CN(C1=C(c2ccccc2)C(=O)NC1=O)c1ccccc1"
  ANSWER_LABEL: "condition met"

====

# System: MAP3K4
# CONDITIONS: concentration: 1 μM, replicates: in singlicate; n = 1
The label is TRUE for %Inh below 6% and FALSE for %Inh equal to or exceeding 6%.

- COMPOUND: "NS(=O)(=O)CCc1cccc(Nc2nccc(-c3c(-c4cccc(NC(=O)c5c(F)cccc5F)c4)nn4ccccc34)n2)c1 [GSK336735]"
  ANSWER_LABEL: "FALSE"
- COMPOUND: "CNc1ncnc2[nH]ncc12 [SKF-18355]"
  ANSWER_LABEL: "TRUE"
- COMPOUND: "CC(=O)Nc1ccc(COc2ccc(Nc3ccnc4cc(-c5ccccn5)ccc34)cc2)cc1.Cl [GW440148]"
  ANSWER_LABEL: "TRUE"
- COMPOUND: "c1ccc(-c2n[nH]cc2-c2ccnc3ccccc23)nc1 [GW271431]"
  ANSWER_LABEL: "TRUE"
- COMPOUND: "Cc1ccc(C(=O)NCC(N)=O)cc1-n1c(C)cc(OCc2ccc(F)cc2F)c(Br)c1=O"
  ANSWER_LABEL: "FALSE"
- COMPOUND: "COc1ccc(Nc2ncc(C#N)c(Nc3ccccc3C(N)=O)n2)cc1N1CCN(C)CC1.Cl [GSK1558669]"
  ANSWER_LABEL: "FALSE"
- COMPOUND: "Nc1nc(-c2ccc3c(N)n[nH]c3c2)cc(N2CCCC2)n1 [GSK2227430]"
  ANSWER_LABEL: "TRUE"
- COMPOUND: "COCCNC(=O)c1ccc(-c2cc(C(=O)NC3CC3)cc(F)c2C)cc1 [GW868318]"
  ANSWER_LABEL: "FALSE"
- COMPOUND: "Cc1cccc(-c2nc(Nc3ccc4ncsc4c3)c3ccccc3n2)n1 [GW867588]"
  ANSWER_LABEL: "TRUE"
